# System: A-549, lung cancer
# EXPERIMENT DESCRIPTION: In vitro cytotoxicity, MTT assay, A-549
# Format: cell-based
# EXPERIMENTAL CONTEXT: A549, 96 h, A-549 human lung cancer cells, 4 days incubation
Recorded IC50 for the following compounds
The response must be a number in µM with no trailing unit.

Past entries and their recorded results:
INSERT INTO measurements (compound, measured) VALUES
  ('O=C(C=Cc1ccc(CNC(=O)c2cccnc2)cc1)NO [Example 7]', 2.89),
  ('O=C(C=Cc1ccc(CNC(=O)c2ccc(N3CCN(Cc4ccccn4)CC3)cc2)cc1)NO [Example 2]', 1.65),
  ('O=C(C=Cc1ccc(CNC(=O)c2ccc(N3CCCC3)cc2)cc1)NO [Example 5]', 0.35),
  ('O=C(C=Cc1ccc(CS(=O)(=O)Nc2cccnc2)cc1)NO [Example 9]', 37),
  ('CN(C)c1ccc(C(=O)NCc2ccc(C=CC(=O)NO)cc2)cc1 [Example 6]', 0.48),
  ('O=C(C=Cc1ccc(CNC(=O)OCc2cccnc2)cc1)NO [Example 8]', 2.61),
  ('O=C(C=Cc1ccc(CNC(=O)c2ccc(N3CCN(Cc4cccnc4)CC3)cc2)cc1)NO [Example 1]', 12),
  ('O=C(C=Cc1ccc(CNC(=O)c2ccc(N3CCN(Cc4ccncc4)CC3)cc2)cc1)NO [Example 3]', 3.02);

Consider the compound shown here: O=C(C=Cc1ccc(CS(=O)(=O)c2ccccc2)cc1)NO [Example 10] What is its recorded IC50?
11.1

Consider the compound shown here: O=C(C=Cc1ccc(CNC(=O)c2ccccn2)cc1)NO [Example 4] What is its recorded IC50?
2.23

* * *

# Test system: MKN-45, stomach cancer
# EXPERIMENT DESCRIPTION: In vitro cytotoxicity, MTT assay, MKN-45
# Assay type: cell-based
# EXPERIMENTAL CONTEXT: 96 h, MKN-45 human stomach cancer cells, 4 days incubation
QUANTITY: IC50
Form entry: enter the amount, then its unit.

INSERT INTO results (compound, measurement_target, quantity, measured) VALUES
  ('O=C(C=Cc1ccc(CNC(=O)OCc2cccnc2)cc1)NO [Example 8]', 'MKN-45, stomach cancer', 'IC50', '3.34 µM'),
  ('O=C(C=Cc1ccc(CNC(=O)c2ccc(N3CCN(Cc4ccccn4)CC3)cc2)cc1)NO [Example 2]', 'MKN-45, stomach cancer', 'IC50', '2.94 µM');

Consider the compound shown here: O=C(C=Cc1ccc(CS(=O)(=O)c2ccccc2)cc1)NO [Example 10] What is its recorded IC50?
8.34 µM

Consider the compound shown here: CN(C)c1ccc(C(=O)NCc2ccc(C=CC(=O)NO)cc2)cc1 [Example 6] What is its recorded IC50?
0.83 µM

* * *

# System: MKN-45, stomach cancer
# EXPERIMENT DESCRIPTION: In vitro cytotoxicity, MTT assay, MKN-45
# Format: cell-based
# EXPERIMENTAL CONTEXT: 96 h, MKN-45 human stomach cancer cells, 4 days incubation
QUANTITY: IC50 (µM)
The response must be a number in µM with no trailing unit.

Past entries and their recorded results:
INSERT INTO results (compound, measurement_target, quantity, measured) VALUES
  ('O=C(C=Cc1ccc(CNC(=O)c2ccc(N3CCN(Cc4cccnc4)CC3)cc2)cc1)NO', 'MKN-45, stomach cancer', 'IC50', 38.6),
  ('O=C(C=Cc1ccc(CNC(=O)c2ccccn2)cc1)NO', 'MKN-45, stomach cancer', 'IC50', 3.64),
  ('O=C(C=Cc1ccc(CNC(=O)c2ccc(N3CCN(Cc4ccncc4)CC3)cc2)cc1)NO', 'MKN-45, stomach cancer', 'IC50', 56.1),
  ('O=C(C=Cc1ccc(CNC(=O)c2cccnc2)cc1)NO', 'MKN-45, stomach cancer', 'IC50', 4.98),
  ('O=C(C=Cc1ccc(CS(=O)(=O)Nc2cccnc2)cc1)NO', 'MKN-45, stomach cancer', 'IC50', 62);

Consider the compound shown here: O=C(C=Cc1ccc(CNC(=O)c2ccc(N3CCCC3)cc2)cc1)NO What is its recorded IC50?
0.8

# credit: patent US7495022B2
